Each record here notes measured IC50.
Target: recombinant Calcineurin (CaN) (Homo sapiens (Human), UniProt P63098+Q08209)
Test: Calcineurin phosphatase inhibition assay without cyclophilin A
Assay type: biochemical
Settings: RII phosphopeptide substrate, read-out: CaN Inhibition (IC50, nM) − CypA
Starred links: 1 amine or outer side, 2 acyl side, 3 side chain; linkers in the order of their positions; H or OH if unused. Non-standard residues stand in square brackets, D forms with d. Residues, ends and D or L forms follow the SMILES beside them. ξ: configuration not given here. NMeBmt(3-oxo) = C/C=C/C[C@@H](C)C(=O)[C@H](NC)C(=O)O; MeBmt = C/C=C/C[C@@H](C)[C@@H](O)[C@H](NC)C(=O)O; ξThr(3S) = C[C@H](O[*:3])C(N[*:1])C(=O)[*:2]; X2 = CN(C)CCO[C@H](C(=O)[*:2])N(C)[*:1]; NMeL = CN[C@@H](CC(C)C)C(=O)O; NMeV = CN[C@H](C(=O)O)C(C)C

The value of IC50 measured for the compound C/C=C/C[C@@H](C)[C@@H](O)[C@H]1C(=O)NC([C@H](C)O)C(=O)N(C)[C@H](OCCN(C)C)C(=O)N(C)[C@@H](CC(C)C)C(=O)N[C@@H](C(C)C)C(=O)N(C)[C@@H](CC(C)C)C(=O)N[C@@H](C)C(=O)N[C@H](C)C(=O)N(C)[C@@H](CC(C)C)C(=O)N(C)[C@@H](CC(C)C)C(=O)N(C)[C@@H](C(C)C)C(=O)N1C (stereo partly drawn) [Compound 2] (cyclo(A[dA][NMeL][NMeL][NMeV][MeBmt][ξThr(3S)][X2][NMeL]V[NMeL])) turned out to be > 10000 nM

Noted for C/C=C/C[C@@H](C)C(=O)[C@H]1C(=O)N[C@@H](C(C)C)C(=O)N(C)[C@H](OCCN(C)C)C(=O)N(C)[C@@H](CC(C)C)C(=O)N[C@@H](C(C)C)C(=O)N(C)[C@@H](CC(C)C)C(=O)N[C@@H](C)C(=O)N[C@H](C)C(=O)N(C)[C@@H](CC(C)C)C(=O)N(C)[C@@H](CC(C)C)C(=O)N(C)[C@@H](C(C)C)C(=O)N1C [Compound 5] (cyclo(A[dA][NMeL][NMeL][NMeV][NMeBmt(3-oxo)]V[X2][NMeL]V[NMeL])) : its IC50 reads > 10000 nM

C/C=C/C[C@@H](C)[C@@H](O)[C@H]1C(=O)N[C@@H](CC)C(=O)N(C)[C@H](OCC(C)(C)N(C)C)C(=O)N(C)[C@@H](CC(C)C)C(=O)N[C@@H](C(C)C)C(=O)N(C)[C@@H](CC(C)C)C(=O)N[C@@H](C)C(=O)N[C@H](C)C(=O)N(C)[C@@H](CC(C)C)C(=O)N(C)[C@@H](CC(C)C)C(=O)N(C)[C@@H](C(C)C)C(=O)N1C [Compound 11] yielded IC50 of 1620 nM

---

Biological target: recombinant Calcineurin (CaN) (Homo sapiens (Human), UniProt P63098+Q08209)
Assay: Calcineurin phosphatase inhibition assay without cyclophilin A
Type: biochemical
Conditions: RII phosphopeptide substrate, read-out: CaN Inhibition (IC50, nM) − CypA
QUANTITY KIND: IC50 (nM)
The answer is to be given in nM; state only the numeric part.

Just so you know, measured IC50 for "C/C=C/C[C@@H](C)[C@@H](O)[C@H]1C(=O)N[C@@H](CC)C(=O)N(C)[C@H](OCC/N=C(\C)N(C)C)C(=O)N(C)[C@@H](CC(C)C)C(=O)N[C@@H](C(C)C)C(=O)N(C)[C@@H](CC(C)C)C(=O)N[C@@H](C)C(=O)N[C@H](C)C(=O)N(C)[C@@H](CC(C)C)C(=O)N(C)[C@@H](CC(C)C)C(=O)N(C)[C@@H](C(C)C)C(=O)N1C" came out at 3880

---

Biological target: Human CypA (Homo sapiens (Human))
Assay: Cyclophilin peptidyl-prolyl isomerase functional assay (PPIase), CypA
Assay type: biochemical
Conditions: human recombinant enzyme, 10° C.; read-out: Inhibition (Ki, nM) Human CypA
Starred links: 1 amine or outer side, 2 acyl side, 3 side chain; linkers in the order of their positions; H or OH if unused. Non-standard residues stand in square brackets, D forms with d. Residues, ends and D or L forms follow the SMILES beside them. ξ: configuration not given here. NMeBmt(3-oxo) = C/C=C/C[C@@H](C)C(=O)[C@H](NC)C(=O)O; MeBmt = C/C=C/C[C@@H](C)[C@@H](O)[C@H](NC)C(=O)O; ξThr(3S) = C[C@H](O[*:3])C(N[*:1])C(=O)[*:2]; X1 = CN([C@H](OCCN1CCOCC1)C(=O)[*:2])[*:1]; X2 = CN(C)CCO[C@H](C(=O)[*:2])N(C)[*:1]; NMeL = CN[C@@H](CC(C)C)C(=O)O; NMeV = CN[C@H](C(=O)O)C(C)C
QUANTITY KIND: Ki (nM)
Just the number in nM, nothing appended.

COMPOUND | TARGET OF ASSAY | Ki (nM)
C/C=C/C[C@@H](C)C(=O)[C@H]1C(=O)N[C@@H](C(C)C)C(=O)N(C)[C@H](OCCN(C)C)C(=O)N(C)[C@@H](CC(C)C)C(=O)N[C@@H](C(C)C)C(=O)N(C)[C@@H](CC(C)C)C(=O)N[C@@H](C)C(=O)N[C@H](C)C(=O)N(C)[C@@H](CC(C)C)C(=O)N(C)[C@@H](CC(C)C)C(=O)N(C)[C@@H](C(C)C)C(=O)N1C [Compound 5] (cyclo(A[dA][NMeL][NMeL][NMeV][NMeBmt(3-oxo)]V[X2][NMeL]V[NMeL])) | Human CypA (Homo sapiens (Human)) | 23
C/C=C/C[C@@H](C)[C@@H](O)[C@H]1C(=O)N[C@@H](CC)C(=O)N(C)[C@H](OCC2(N(C)C)CC2)C(=O)N(C)[C@@H](CC(C)C)C(=O)N[C@@H](C(C)C)C(=O)N(C)[C@@H](CC(C)C)C(=O)N[C@@H](C)C(=O)N[C@H](C)C(=O)N(C)[C@@H](CC(C)C)C(=O)N(C)[C@@H](CC(C)C)C(=O)N(C)[C@@H](C(C)C)C(=O)N1C | Human CypA (Homo sapiens (Human)) | 6.5
C/C=C/C[C@@H](C)[C@@H](O)[C@H]1C(=O)NC([C@H](C)O)C(=O)N(C)[C@H](OCCN(C)C)C(=O)N(C)[C@@H](CC(C)C)C(=O)N[C@@H](C(C)C)C(=O)N(C)[C@@H](CC(C)C)C(=O)N[C@@H](C)C(=O)N[C@H](C)C(=O)N(C)[C@@H](CC(C)C)C(=O)N(C)[C@@H](CC(C)C)C(=O)N(C)[C@@H](C(C)C)C(=O)N1C (stereo partly drawn) [Compound 2] (cyclo(A[dA][NMeL][NMeL][NMeV][MeBmt][ξThr(3S)][X2][NMeL]V[NMeL])) | Human CypA (Homo sapiens (Human)) | 50

--- query ---
Ki recorded for this compound, C/C=C/C[C@@H](C)C(=O)[C@H]1C(=O)N[C@@H](C(C)C)C(=O)N(C)[C@H](OCCN2CCOCC2)C(=O)N(C)[C@@H](CC(C)C)C(=O)N[C@@H](C(C)C)C(=O)N(C)[C@@H](CC(C)C)C(=O)N[C@@H](C)C(=O)N[C@H](C)C(=O)N(C)[C@@H](CC(C)C)C(=O)N(C)[C@@H](CC(C)C)C(=O)N(C)[C@@H](C(C)C)C(=O)N1C [Compound 6] (cyclo(A[dA][NMeL][NMeL][NMeV][NMeBmt(3-oxo)]V[X1][NMeL]V[NMeL])) , is 90

---

Below is a list of entries, each paired with its recorded IC50 value.
Target: recombinant Calcineurin (CaN) (Homo sapiens (Human), UniProt P62937+P63098+Q08209)
Experiment: Calcineurin phosphatase inhibition assay with cyclophilin A
Type: biochemical
Conditions: RII phosphopeptide substrate, read-out: CaN Inhibition (IC50, nM) + CypA
Starred links: 1 amine or outer side, 2 acyl side, 3 side chain; linkers in the order of their positions; H or OH if unused. Non-standard residues stand in square brackets, D forms with d. Residues, ends and D or L forms follow the SMILES beside them. NMeBmt(3-oxo) = C/C=C/C[C@@H](C)C(=O)[C@H](NC)C(=O)O; X1 = CN([C@H](OCCN1CCOCC1)C(=O)[*:2])[*:1]; NMeL = CN[C@@H](CC(C)C)C(=O)O; NMeV = CN[C@H](C(=O)O)C(C)C

Form field IC50, entry C/C=C/C[C@@H](C)C(=O)[C@H]1C(=O)N[C@@H](C(C)C)C(=O)N(C)[C@H](OCCN2CCOCC2)C(=O)N(C)[C@@H](CC(C)C)C(=O)N[C@@H](C(C)C)C(=O)N(C)[C@@H](CC(C)C)C(=O)N[C@@H](C)C(=O)N[C@H](C)C(=O)N(C)[C@@H](CC(C)C)C(=O)N(C)[C@@H](CC(C)C)C(=O)N(C)[C@@H](C(C)C)C(=O)N1C [Compound 6] (cyclo(A[dA][NMeL][NMeL][NMeV][NMeBmt(3-oxo)]V[X1][NMeL]V[NMeL])) : > 10000 nM
